Where do these numbers come from? They come from PubChem BioAssay (EPA / NIEHS).

Assay: BSK_CASM3C_Proliferation: Cell Proliferation Assessment in the BioMAP Diversity Plus: CASM3C Assay (AID 2283047);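 also: sulforhodamine B total protein stain as relative cell number at 560 nm; sub-confluent cells exposed 48 h before staining; fitted both ways against DMSO so gain or loss of cell number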
Conditions: primary human coronary artery smooth muscle cells
Activity calls are given as the source filed them. The calls were made as follows: active = hit-call score of the fitted dose curve at least 0.9, where 1 is the maximum; inactive = score below 0.9.
Classes used: Yes for active, No for inactive

# molecule, qualitative_label
records = [
    ("CCOC(=O)CC(=O)CCl", "Yes"),
    ("O=S(=O)(c1ccc(Cl)cc1)c1cc(Cl)c(Cl)cc1Cl", "No"),
    ("Oc1ccc(Cc2ccc(O)cc2)cc1", "No"),
    ("Cc1ccc(OP(=O)(Oc2ccc(C)cc2C)Oc2ccc(C)cc2C)c(C)c1", "No"),
    ("Clc1cccc(Cl)c1Cl", "No"),
    ("CCC(C)(C#N)N=NC(C)(C#N)CC (configuration not stated)", "No"),
    ("Cc1c([N+](=O)[O-])c(C)c([N+](=O)[O-])c(C(C)(C)C)c1[N+](=O)[O-]", "No"),
    ("CCOC(=O)CCN(SN(C)C(=O)Oc1cccc2c1OC(C)(C)C2)C(C)C", "Yes"),
    ("CCN(CC)C(=O)C(Cl)=C(C)OP(=O)(OC)OC", "No"),
    ("Clc1cccc(Cl)c1", "No"),
    ("c1ccc2sc(SNC3CCCCC3)nc2c1", "No"),
    ("C[C@]12CC[C@@H](O)C[C@@H]1CC[C@@H]1[C@@H]2CC[C@]2(C)C(=O)CC[C@@H]12", "No"),
    ("CCOP(=S)(OCC)SCS(=O)(=O)C(C)(C)C", "No"),
    ("COc1ccccc1N", "No"),
    ("CC1(C)[C@H](C(=O)O[C@H](C#N)c2cccc(Oc3ccccc3)c2)[C@@H]1/C=C(\\Cl)C(F)(F)F", "No"),
    ("O=[N+]([O-])c1cccc2ccccc12", "No"),
    ("CC(C=O)Cc1ccc2c(c1)OCO2 (configuration not stated)", "No"),
    ("OCCN(CCO)CCO", "No"),
    ("CCCCOC(=O)COC(=O)c1ccccc1C(=O)OCCCC", "No"),
    ("CC(C)N(C(=O)CCl)c1ccccc1", "Yes"),
    ("O=C(N[C@H]1CN2CCC1CC2)c1ccc2c(c1)OCCO2", "No"),
    ("O=C(CCl)NCO", "No"),
    ("Nc1c(Oc2ccccc2)cc(O)c2c1C(=O)c1ccccc1C2=O", "No"),
    ("O=c1oc2ccccc2c(O)c1C(CC(O)c1ccc(-c2ccc(Br)cc2)cc1)c1ccccc1 (configuration not stated)", "Yes"),
    ("N#CCCC(Br)(C#N)CBr (configuration not stated)", "Yes"),
    ("O=C1C=CC(=O)c2ccccc21", "Yes"),
    ("CC(C)(C)c1cc([N+](=O)[O-])cc(C(C)(C)C)c1O", "No"),
]

---

Assay: BSK_hDFCGF_SRB: Viability Assessment in the BioMAP Diversity Plus: hDFCGF Assay (AID 2283061);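 also: cells exposed to compound for 24 h before the read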
Conditions: primary human foreskin fibroblasts
The source made the active and inactive calls. The calls were made as follows: active = hit-call score of the fitted dose curve at least 0.9, where 1 is the maximum; inactive = score below 0.9.
Possible outcomes: active, inactive

# molecule, qualitative_label
data = [
    ("O=S(=O)(C(Cl)(Cl)Cl)C(Cl)(Cl)Cl", "active"),
    ("COc1ccccc1N", "inactive"),
    ("O=S(=O)(c1ccc(Cl)cc1)c1cc(Cl)c(Cl)cc1Cl", "inactive"),
    ("O=C1C=CC(=O)c2ccccc21", "active"),
    ("Clc1cccc(Cl)c1Cl", "inactive"),
    ("c1ccc(-c2cccc(-c3ccccc3)c2)cc1", "active"),
    ("O=C(N[C@H]1CN2CCC1CC2)c1ccc2c(c1)OCCO2", "inactive"),
    ("CCOP(=O)(OCC)SCCSCC", "inactive"),
    ("N#Cc1cccnc1", "inactive"),
    ("CC(C)(C)c1cc([N+](=O)[O-])cc(C(C)(C)C)c1O", "inactive"),
    ("CN(C)C(=S)S", "active"),
    ("O=C(O)C1(c2ccc3c(c2)OC[C@H](Cc2ccc(-c4ccccc4)cc2)[C@H]3O)CCCC1", "active"),
    ("Cc1ccccc1OP(=O)(Oc1ccccc1C)Oc1ccccc1C", "active"),
    ("C[C@]12CC[C@@H](O)C[C@@H]1CC[C@@H]1[C@@H]2CC[C@]2(C)C(=O)CC[C@@H]12", "inactive"),
    ("CC1(C)[C@H](C(=O)O[C@H](C#N)c2cccc(Oc3ccccc3)c2)[C@@H]1/C=C(\\Cl)C(F)(F)F", "inactive"),
    ("CCOC(=O)C(SP(=S)(OC)OC)c1ccccc1 (centres undefined)", "inactive"),
    ("O=c1oc2ccccc2c(O)c1C(CC(O)c1ccc(-c2ccc(Br)cc2)cc1)c1ccccc1 (centres undefined)", "active"),
    ("Cc1ccc2nc3sc(=O)sc3nc2c1", "inactive"),
    ("CC(C)(C)c1ccccc1O", "inactive"),
    ("OCCCCO", "inactive"),
    ("COCC(=O)N(c1c(C)cccc1C)[C@H](C)C(=O)OC", "inactive"),
    ("CCOP(=O)(OCC)OC(=CCl)c1ccc(Cl)cc1Cl", "active"),
    ("[Cl][Sn]([c]1ccccc1)([c]1ccccc1)[c]1ccccc1", "active"),
    ("Cc1cc(C)cc(C)c1", "inactive"),
    ("CC(C=O)Cc1ccc2c(c1)OCO2 (centres undefined)", "inactive"),
    ("CCOC(=O)CC(=O)CCl", "inactive"),
    ("C=CC(Cl)CCl (centres undefined)", "inactive"),
    ("Oc1cc(Cl)c(Cl)cc1Cl", "active"),
    ("CC(C)O.CC(C)O.OCCN(CCO)CCO.OCCN(CCO)CCO.[Ti]", "inactive"),
]

---

Assay: ATG_TAL_CIS: Attagene CIS-FACTORIAL HepG2 Assay for human TAL Basal Promoter (AID 2282966);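 also: background control endpoint measuring basal TAL promoter reporter mRNA not a specific factor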
Conditions: HepG2 Attagene cis-factorial TAL promoter reporter; actives raise or lower the signal
The source made the active and inactive calls. How the source made its calls: active means hit-call score of the fitted dose curve at least 0.9, where 1 is the maximum; inactive means score below 0.9.
Outcomes: y = active, n = inactive

# molecule, qualitative_label
data = [
    ("CCN(CCO)CCO", "n"),
    ("c1csc(-c2ccc(-c3cccs3)s2)c1", "n"),
    ("Clc1ccc(C(Cl)(Cl)Cl)cn1", "n"),
    ("CC(F)(F)CC(F)(F)F", "n"),
    ("C=CC(Cl)CCl (stereo not drawn)", "n"),
    ("CCN(CC)C(=O)C(Cl)=C(C)OP(=O)(OC)OC", "n"),
    ("CC(C)[C@@H](Nc1ccc(C(F)(F)F)cc1Cl)C(=O)OC(C#N)c1cccc(Oc2ccccc2)c1 (stereo partly drawn)", "n"),
    ("C[CH2][Hg][S]c1ccccc1C(=O)O", "y"),
]

---

Test: CPHEA_Stoker_NIS_Cytotoxicity: Cytotoxicity Assessment for CPHEA's Radioactive Iodide Uptake (RAIU) Assay for Sodium/Iodide Symporter (NIS) Inhibition, Stoker and Laws Labs (AID 2283897)
The source made the active and inactive calls. Rule for the calls: active = hit-call score of the fitted dose curve at least 0.9, where 1 is the maximum; inconclusive = response in the unintended direction; inactive = score below 0.9.
Classes used: Y (active), N (inactive)

# compound, qualitative_label
rows = [
    ("N#CCCC(Br)(C#N)CBr (stereo not given)", "N"),
    ("CC(C)=CC1C(C(=O)OCc2cccc(Oc3ccccc3)c2)C1(C)C (stereo not given)", "N"),
    ("Oc1cc(Cl)c(Cl)cc1Cl", "N"),
    ("CCC[CH2][Sn]([Cl])([Cl])[CH2]CCC", "N"),
    ("CCOCn1c(-c2ccc(Cl)cc2)c(C#N)c(Br)c1C(F)(F)F", "N"),
    ("O=C(NC(=O)c1c(F)cccc1F)Nc1cc(Cl)c(OC(F)(F)C(F)C(F)(F)F)cc1Cl (stereo not given)", "N"),
    ("CC(C)N(C(=O)CCl)c1ccccc1", "N"),
    ("CC(C)(C)c1ccccc1O", "N"),
    ("O=[N+]([O-])c1ccccc1O", "N"),
    ("O=S1OC[C@@H]2[C@H](CO1)[C@]1(Cl)C(Cl)=C(Cl)[C@@]2(Cl)C1(Cl)Cl (stereo not given in full)", "N"),
    ("CCCCCCCCCCCCOS(=O)(=O)O", "N"),
    ("O=C1c2ccccc2C(=O)C1C(=O)C(c1ccccc1)c1ccc(Cl)cc1 (stereo not given)", "N"),
    ("CCCCCCCCCCCCc1cccc(S(=O)(=O)O)c1", "N"),
    ("CC(O)(CS(=O)(=O)c1ccc(F)cc1)C(=O)Nc1ccc(C#N)c(C(F)(F)F)c1 (stereo not given)", "Y"),
    ("C=CC(Cl)CCl (stereo not given)", "N"),
]

---

Molecular target: Hypoxia-inducible factor 1-alpha (Homo sapiens)
Assay: ATG_HIF1a_CIS: Attagene CIS-FACTORIAL HepG2 Assay for human Hypoxia Inducible Factor 1 (HIF1A) (AID 2282951)
Settings: HepG2 Attagene cis-factorial HIF1a reporter transcription; actives raise or lower the signal
Activity calls are given as the source filed them. Rule for the calls: active = hit-call score of the fitted dose curve at least 0.9, where 1 is the maximum; inactive = score below 0.9.
Classes used: T for active, F for inactive

# compound, qualitative_label
records = [
    ("Clc1cc(C(Cl)(Cl)Cl)cnc1Cl", "T"),
    ("CCCCCCCCCCCCCCC(Br)C(=O)O (stereo not given)", "T"),
    ("CC(=Cc1ccccc1)[N+](=O)[O-]", "F"),
    ("ClCCN1CCOCC1", "F"),
    ("N#Cc1ccncc1", "F"),
    ("CN(C)[C@@H]1C(=O)C(C(N)=O)=C(O)[C@@]2(O)C(=O)C3=C(O)c4c(O)ccc(Cl)c4[C@@](C)(O)[C@H]3C[C@@H]12", "F"),
    ("Oc1c(Cl)cc(Cl)cc1Cl", "T"),
    ("CCOC(=O)c1ccccc1S(=O)(=O)NC(=O)Nc1nc(Cl)cc(OC)n1", "F"),
    ("CC(C)CP(=S)(S)CC(C)C", "F"),
    ("Cc1cc(Cl)ccc1O", "F"),
    ("CC(c1ccccc1)(c1ccc(O)cc1)c1ccc(O)cc1", "F"),
    ("Nc1c(Oc2ccccc2)cc(O)c2c1C(=O)c1ccccc1C2=O", "F"),
    ("CC[N+](CC)(CC)CC", "F"),
    ("O=[N+]([O-])c1c2ccccc2cc2ccccc12", "F"),
    ("O=NN1CCOCC1", "F"),
    ("Clc1ccc(C(Cl)(Cl)Cl)cn1", "F"),
    ("[F][Sn]([c]1ccccc1)([c]1ccccc1)[c]1ccccc1", "T"),
    ("CC1CC(=O)O1 (stereo not given)", "T"),
    ("CC(C)N(C(=O)CCl)c1ccccc1", "T"),
    ("N#CCCC(Br)(C#N)CBr (stereo not given)", "F"),
    ("CCC[CH2][Sn]([Cl])([Cl])[CH2]CCC", "T"),
    ("Brc1ccc(Oc2c(Br)cc(Br)cc2Br)c(Br)c1", "F"),
    ("BrCC(Br)c1ccccc1 (stereo not given)", "F"),
    ("COc1ccccc1N", "F"),
    ("CCCCOP(=O)(CCCC)OCCCC", "F"),
    ("CC(F)(F)CC(F)(F)F", "F"),
    ("Cc1cccc(N=Nc2ccc(N(C)C)cc2)c1", "F"),
    ("CC1(C)[C@H](C(=O)O[C@H](C#N)c2cccc(Oc3ccccc3)c2)[C@@H]1/C=C(\\Cl)C(F)(F)F", "F"),
    ("Cc1ccccc1OP(=O)(Oc1ccccc1C)Oc1ccccc1C", "F"),
    ("O=c1nc(O)n(Cl)c(=O)n1Cl", "F"),
    ("O=[N+]([O-])c1ccc(Nc2ccccc2)cc1", "F"),
    ("CCOc1ccc(N)cc1", "F"),
    ("CN(N=O)C(N)=O", "F"),
    ("CCOC(=O)Cc1ccccc1", "F"),
    ("Nc1cccnc1", "F"),
    ("O=[N+]([O-])c1ccc(Cl)c([N+](=O)[O-])c1", "F"),
    ("C=CC(=O)OCC(COC(=O)C=C)(COC(=O)C=C)COC(=O)C=C", "F"),
    ("OC(Cc1ccccc1Cl)(Cn1cncn1)C1(Cl)CC1 (stereo not given)", "F"),
    ("O=C(NC(=O)c1c(F)cccc1F)Nc1cc(Cl)c(Oc2ncc(C(F)(F)F)cc2Cl)c(Cl)c1", "F"),
    ("CC(C=O)Cc1ccc2c(c1)OCO2 (stereo not given)", "F"),
    ("CNC(=O)O/N=C/C(C)(C)S(C)(=O)=O", "F"),
    ("O=C(N[C@H]1CN2CCC1CC2)c1ccc2c(c1)OCCO2", "F"),
    ("COCC(=O)N(c1c(C)cccc1C)[C@H](C)C(=O)OC", "F"),
    ("CCOC(=O)CCN(SN(C)C(=O)Oc1cccc2c1OC(C)(C)C2)C(C)C", "F"),
    ("OC[C@@H](O)[C@H]1O[C@@H]2O[C@H](C(Cl)(Cl)Cl)O[C@@H]2[C@H]1O", "F"),
]
